Target: KRAS G12D (Homo sapiens, UniProt P01116+P62937, G12D)
Sequence (P01116 1-169 isoform P01116-2 G12D limits assumed): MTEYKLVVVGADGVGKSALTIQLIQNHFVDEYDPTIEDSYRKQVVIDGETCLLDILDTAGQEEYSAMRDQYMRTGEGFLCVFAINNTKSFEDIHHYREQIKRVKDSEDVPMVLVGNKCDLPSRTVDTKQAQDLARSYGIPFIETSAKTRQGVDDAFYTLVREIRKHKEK
Sequence (P62937 whole entry): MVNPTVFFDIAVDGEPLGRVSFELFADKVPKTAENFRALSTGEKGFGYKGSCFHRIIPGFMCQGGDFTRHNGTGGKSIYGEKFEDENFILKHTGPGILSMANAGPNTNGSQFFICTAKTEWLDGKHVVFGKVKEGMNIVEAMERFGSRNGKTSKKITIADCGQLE
Experiment: Ras-Raf disruption / FRET / MOA assay (BRAF RBD)
Type: biochemical
Conditions: KRAS G12D FRET data IC50, Ras-Raf disruption, with Cyclophilin A
Observed Property: IC50

Would you please look over these solved cases?
Compound	IC50
CCn1c(-c2cccnc2[C@H](C)OC)c2c3cc(ccc31)-c1cc(O)cc(c1)C[C@H](NC(=O)[C@H](C1CCCC1)N(C)C(=O)CN(C)C(=O)[C@@H]1N[C@@H]1C1(F)CC1)C(=O)N1CCC[C@H](N1)C(=O)OCC(C)(C)C2	0.1 to 1 µM
CCn1c(-c2cccnc2[C@H](C)OC)c2c3cc(ccc31)-c1cc(O)cc(c1)C[C@H](NC(=O)[C@H](C(C)C)N(C)C(=O)CN(C)C(=O)[C@@H]1CN1CC1COC1)C(=O)N1CCC[C@H](N1)C(=O)OCC(C)(C)C2 (stereo partly shown)	0.01 to 0.1 µM
CCn1c(-c2cccnc2[C@H](C)OC)c2c3cc(ccc31)-c1cccc(c1)C[C@H](NC(=O)[C@H](C(C)C)N(C)C(=O)CN(C)C(=O)[C@H]1CN1)C(=O)N1CCC[C@H](N1)C(=O)OCC(C)(C)C2	1 to 10 µM

Turning now to a further record.
Tell me the measured IC50 of CCn1c(-c2cccnc2[C@H](C)OC)c2c3cc(ccc31)-c1cc(O)cc(c1)C[C@H](NC(=O)[C@H](C(C)C)N(C)C(=O)CN(C)C(=O)[C@@H]1CN1CC(=O)N(C)C)C(=O)N1CCC[C@H](N1)C(=O)OCC(C)(C)C2 (stereo partly shown) , please. 0.1 to 1 µM

----------
System: 4EBP1 (Thr37/46) phosphorylation (mTORC1) in MDA-MB-468 cells
Experiment: Cell based AlphaLISA assay, mTOR kinase cellular assay: inhibition of p-4E-BP1 (T37/46) in MDA-MB-468 cells
Conditions: Homo sapiens, read-out: pIC50 for Inhibition of mTORC1 and mTORC2 Substarte Phosphorylation p-4E-BP1-(T37/46) (converted)
Observed Property: IC50

What value of IC50 on 4EBP1 (Thr37/46) phosphorylation (mTORC1) in MDA-MB-468 cells does CO[C@H]1C[C@@H]2CC[C@@H](C)[C@@](O)(O2)C(=O)C(=O)N2CCCC[C@H]2C(=O)O[C@H]([C@H](C)C[C@@H]2CC[C@@H](OC(=O)NCCOCCOCCOCCOCCC(=O)NCc3cnc(N4CCN(c5ncc(C(=O)N6CCc7cc(Cn8nc(-c9ccc%10oc(N)nc%10c9)c9c(N)ncnc98)ccc7C6)cn5)CC4)nc3)[C@H](OC)C2)C[C@@H](O)[C@H](C)/C=C(\C)[C@@H](O)[C@@H](OC)C(=O)[C@H](C)C[C@H](C)/C=C/C=C/C=C/1C [Example 49] have? ≤ 3.16 nM

----------
Test system: NCI-H358 (K-Ras G12C)
Test: CellTiter-Glo cell viability assay
Assay type: cell-based
Details: Homo sapiens, NCI-H358, 120 h, read-out: H358 Cell Viability assay data IC50, K-Ras G12C, 5-day treatment
pIC50: −log10 of the molar value.
Observed Property: pIC50

Would you please look over these solved cases?
Molecule	Reported
CCn1c(-c2cccnc2[C@H](C)OC)c2c3cc(ccc31)-c1cc(O)cc(c1)C[C@H](NC(=O)[C@H](C(C)C)N(C)C(=O)CN(C)C(=O)[C@@H]1N[C@H]1C1COC1)C(=O)N1CCC[C@H](N1)C(=O)OCC(C)(C)C2	7.00 to 8.00
CCC(C)N(C)C(=O)c1cncc(-c2c3c4cc(ccc4n2CC)-c2cc(O)cc(c2)C[C@H](NC(=O)[C@H](C(C)C)N(C)C(=O)CN(C)C(=O)[C@H]2CN2)C(=O)N2CCC[C@H](N2)C(=O)OCC(C)(C)C3)c1 (stereo partly shown)	7.00 to 8.00
CCn1c(-c2cccnc2[C@H](C)OC)c2c3cc(ccc31)-c1cc(O)cc(c1)C[C@H](NC(=O)[C@H](C(C)C)N(C)C(=O)CN(C)C(=O)[C@H]1CN1Cc1ccccc1F)C(=O)N1CCC[C@H](N1)C(=O)OCC(C)(C)C2 (stereo partly shown)	> 8.00

Turning now to a further record.
Tell me the measured pIC50 of `CCn1c(-c2cccnc2[C@H](C)OC)c2c3cc(ccc31)-c1cc(O)cc(c1)C[C@H](NC(=O)[C@H](C(C)C)N(C)C(=O)CN(C)C(=O)[C@H]1N[C@H]1C1CCC1)C(=O)N1CCC[C@H](N1)C(=O)OCC(C)(C)C2` , please. 7.00 to 8.00
